# Assay System: T1, human gastrin (h-G17) (human, UniProt P01350 76-92)
# T1 peptide (looked up): QGPWLEEEEEAYGWMDF
# Assay Details: cell-based or functional assay
// reported Ca flux neutralization at 2x molar excess for each item listed

// solved cases for Ca flux neutralization at 2x molar excess follow
Ask | If you can, please state the reported Ca flux neutralization at 2x molar excess value of XPA067 (parental antibody fragment) (antibody, V domains shown, also called parental (XPA067)) VH: EVQLVQSGAEVKKPGSSVTVSCKASGGTFDKYAIGWVRQAPGQGLEWMGRIIPTLDLANSAQKFQDRVTITADKFTTTVYMELTNLRPEDTAMYYCTRDPLYNWSGSYWGRGTMVTVSS VL: QAVLTQPSSLSASPGASASLTCTLRSGINVGTYRIYWYQQKPGSPPQYLLRYKSDSDKQQGSGVPSRFSGSKDASANAGILLISGLQSEDEADYYCMIWHSSAWVFGGGTKLTVL .
Reply | < 20%

Ask | So what's the measured Ca flux neutralization at 2x molar excess for this one? XPA081 (phage display-derived antibody fragment) (antibody, V domains shown) VH: EVQLVQSGAEVKKPGSSVTVSCKASGGTFDKYAIGWVRQAPGQGLEWMGRIIPSLDLDNSAQKFQDRVTITADKFTTTVYMKLSNLRPEDTAIYYCTRDPLYQWSGSYWGKGTLVTVSS VL: QAVLTQPSSLSASPGASASLTCTLRSDINVGTYRIYWYQQKPGSPPQYLLRYKSDSDKQQGSGVPSRFSGSKDASANAGILLISGLQSGDGADYYCMIWHSSAWVFGGGTKLTVL
Reply | < 20%

Ask | Quick check: Ca flux neutralization at 2x molar excess of XPA065 (phage display-derived antibody fragment) (antibody, V domains shown) VH: EVQLVQSGAEVKKPGSSVTVSCKASGGTFDKYAIGWVRQAPGQGLEWMGRIIPTLDLANSAQKFQDRVTITADKFTTTVYMELTNLRPEDTAMYYCTRDPLYNWSGSYWGRGTMVTVSS VL: QAVLTQPSSLSASPGTSASLTCTLRSGINVGSYRIYWYQQRPGSPPQYLLRYKSDSDKQQGSGVPSRFSGSKDASANAGVLFISGLQSDDEADYYCMIWHNSAWVFGGGTKLTVL ?
Reply | < 20%

Ask | I'd like to know its Ca flux neutralization at 2x molar excess. The binder in question is XPA061 (phage display-derived antibody fragment) (antibody, V domains shown) VH: QVQLVQSGAEVKKPGSSVKVSCKISGGTFSSHAIGWVRQAPGQGLEWIGRIIPSLDLDNSAPKFQDRVTITADKFTNTAYMELRNLRPEDTAFYYCTGDPLYNWTGAHWGRGTMVTVSS VL: QAVLTQPSSLSASPGASASLTCTLRSDINVGTYRIYWYQQKSGSPPQYLLRYRSDSDKQQGSGVPSRFSGSKDASANAGILLISGLQSEDEADYYCMIWHSSAWVFGGGTKVTVL
Reply | ~70%

Now examine the next entry.
Ask | Which Ca flux neutralization at 2x molar excess is listed for XPA063 (phage display-derived antibody fragment) (antibody, V domains shown) VH: EVQLVQSGAEVKKPGSSVTVSCKASGGTFDKYAIGWVRQAPGQGLEWMGRIIPSLDLDNSAQKFQDRVTITADKFTTTVYMKLSNLRPEDTAMYYCTRDPLYNWSGSYWGRGTMVTVSS VL: QAVLTQPSSLSASPGASASLTCTLRSGINVGTYRIYWYQQKPGSPPQYLLRYKSDSDKQQGSGVPSRFSGSKDASANAGILLISGLQSEDEADYYCMIWHSSAWVFGGGTKLTVL ?
Reply | < 20%
